Would you kindly list water absorption amount for each of these compounds?
# METHOD SUMMARY: water absorption and agglomeration after being placed in the air for 24 hours
# Assay type: physicochemical
Give the value, in units of wt %, as a plain number.

Exercise: # query: water absorption amount of entry CCC(=O)OCC[N+](C)(C)C.[Br-] [propionylcholine bromide]
Key: 0.77

Exercise: Follow-up entry: CC(=O)OCC[N+](C)(C)C.[Cl-] [acetylcholine chloride]
Key: 1.58

Exercise: Follow-up entry: CCC(=O)OCC[N+](C)(C)C.[Cl-] [propionylcholine chloride]
Key: 1.06

Exercise: Follow-up entry: C[N+](C)(C)CCO.[I-] [anhydrous choline iodide single crystal, choline iodide]
Key: 2.30

Exercise: Follow-up entry: C[N+](C)(C)CCO.[Cl-] [choline chloride]
Key: 2.58
